Tested on: SF-539 CNS
Test: NCI tumour cell line growth inhibition, 48 h
metric: log10 of TGI (log10 of the value in µM)

molecule="CCCCCCCCC#CCCCCCCCCCC[C@@H]1C(=O)O[C@H](C)[C@@H]1O (tested in a mixture with another compound)" valuemeasured=1.62
molecule=COc1ccc(Oc2ccccc2N)cc1 valuemeasured=1.76
molecule=CC(C)Oc1cccc(N2C(Nc3ccccc3)=Nc3ccncc3S2(=O)=O)c1 valuemeasured=1.65
molecule=COc1nc(C#CC2CCCCC2)nc(OC)n1 valuemeasured=0.80
molecule="CN(C)CC1CCC(CN(C)C)C(=O)C1=O (configuration not stated)" valuemeasured=1.10
molecule=COc1ccc(/C=C/c2c(C(=O)/C=C/c3ccc(C(F)(F)F)cc3)c(C)nc3ccccc23)cc1 valuemeasured=0.52
molecule="O=C(NNc1ccc(Cl)cc1)C1CCC(CNS(=O)(=O)c2ccccc2Cl)CC1 (configuration not stated)" valuemeasured=1.65
molecule=Cn1cc(C2=C(c3c[nH]c4ccccc34)C(=O)NC2=O)c2ccccc21 valuemeasured=0.06
molecule="Cc1ccccc1NC(=O)CC(=O)NNC(Sc1ccccc1)c1cc(N=Nc2ccc(Br)cc2)ccc1O (configuration not stated)" valuemeasured=0.67
molecule=Cc1cc(C)c(C#N)c(Sc2nc(C)c([N+](=O)[O-])c(C)c2C#N)n1 valuemeasured=0.78
molecule=COc1ccc(C(=O)/C=C/c2cc(-c3cc(OC)c(OC)c(OC)c3)n[nH]2)cc1 valuemeasured=0.49
molecule=ClCc1ccccc1Cn1cnc2ncnc(Cl)c21 valuemeasured=0.70
molecule=CC1=CCC[C@H]2[C@](C)(CC3=CC(=O)C(SCC(C)C)=CC3=O)[C@@H](C)CC[C@]12C valuemeasured=1.52
molecule=CC(C)(C)OC(=O)c1ccc(NCC2=C(Br)C(=O)C=CC2=O)cc1 valuemeasured=1.72
molecule="CCOc1cc2c(cc1O)C(O)C[C@@H]1[C@@H]2CC[C@]2(C)[C@@H](O)CC[C@@H]12 (some centres not stated)" valuemeasured=0.56
molecule="CCN(CC)CCCC(C)Nc1cc(-c2cccc(OC(F)(F)F)c2)nc2ccc(N3CCCC3)cc12 (configuration not stated)" valuemeasured=-0.29
molecule="CCCCCCCCCCCCC(O)c1ccco1 (configuration not stated)" valuemeasured=1.59
molecule=N/C(=N\N=C\c1ncccc1O)NO valuemeasured=1.77
molecule=O=c1c2nc(-c3ccccc3)oc2n(-c2ccccc2)c(=O)n1-c1ccccc1 valuemeasured=1.55
molecule=CN(C)CCCn1c(=O)c2ccccc2c2cnc3[nH]ccc3c21 valuemeasured=0.85
molecule="C=C1C(C)C2C(Cc3ccccc3)NC(=O)C23OC(=O)/C=C\\CC(=O)CCC(C)C/C=C/C3C1O (configuration not stated)" valuemeasured=0.64
molecule=CS(=O)(=O)Nc1cccc(-c2ccc3ncnc(Nc4ccc(F)c(Cl)c4)c3c2)c1 valuemeasured=0.62
molecule=Cc1cc(S(=O)(=O)/N=C(/NN)Nc2ccc(Cl)cc2)c(S)cc1Cl valuemeasured=1.63

----------
Tested on: SN12K1 renal
Test: NCI tumour cell line growth inhibition, 48 h
metric: TGI

structuresmiles=Cc1c2ccncc2c(C)c2c1[nH]c1ccc(OCCN(C)C)cc12 metric=TGI valuemeasured="0.381 µM"
structuresmiles=N/C(=N\N=C\c1ncccc1O)NO metric=TGI valuemeasured="> 69 µM"
structuresmiles=Nc1c(S(=O)(=O)O)cc(S(=O)(=O)O)c2ccc(N=Nc3ccc(/C=C/c4ccc(N=Nc5ccc6c(S(=O)(=O)O)cc(S(=O)(=O)O)c(N)c6c5O)cc4S(=O)(=O)O)c(S(=O)(=O)O)c3)c(O)c12 metric=TGI valuemeasured="> 100 µM"
structuresmiles=CCCCN(C)/N=N/c1nc[nH]c1C(N)=O metric=TGI valuemeasured="> 100 µM"
